- target.desc: rhBACE-1 β-Secretase recombinant human (Homo sapiens, UniProt P56817)
- Construct: purchased R&D Systems 931-AS
- Sequence (P56817 46-457 limits assumed): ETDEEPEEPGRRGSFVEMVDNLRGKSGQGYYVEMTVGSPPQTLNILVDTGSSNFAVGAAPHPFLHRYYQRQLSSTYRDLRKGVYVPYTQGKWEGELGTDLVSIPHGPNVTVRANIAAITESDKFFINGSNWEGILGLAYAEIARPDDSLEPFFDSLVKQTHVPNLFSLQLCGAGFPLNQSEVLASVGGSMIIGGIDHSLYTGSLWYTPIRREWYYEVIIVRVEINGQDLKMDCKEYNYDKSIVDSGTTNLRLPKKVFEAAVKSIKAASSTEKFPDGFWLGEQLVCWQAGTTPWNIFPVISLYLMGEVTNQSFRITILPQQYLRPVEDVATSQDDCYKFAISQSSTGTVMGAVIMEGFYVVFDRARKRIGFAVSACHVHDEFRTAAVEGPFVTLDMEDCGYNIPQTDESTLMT
- protocol: BACE assay (FRET)
- Assay type: biochemical
- experimental.context: compound at 10 μM; percentage of enzyme activity
readout.kind: % of BACE activity (%)
Give bare numbers, in %.

CCC(C)Oc1ccc(C(=O)OC)cc1NCC=C(C)CCC=C(C)CCC=C(C)C (stereo not shown) | 100

Field: % of BACE activity. Fill in for each record below.
1. COC(=O)c1ccc(OC)c(N(C/C=C(\C)CCC=C(C)C)C/C=C(\C)CCC=C(C)C)c1 [Compound 30]
2. COC(=O)c1ccc(OC(C)=O)c(N(C/C=C(\C)CCC=C(C)C)C/C=C(\C)CCC=C(C)C)c1
3. COc1ccccc1N(C/C=C(\C)CCC=C(C)C)C/C=C(\C)CCC=C(C)C

1: 33; 2: 4.5; 3: 51
